Test system: full length human TREX1 (Homo sapiens, UniProt Q9NSU2)
Construct: N-terminally His-Tev tagged full length human TREX1; made in house; host or cells: E. coli
Sequence (Q9NSU2 whole entry): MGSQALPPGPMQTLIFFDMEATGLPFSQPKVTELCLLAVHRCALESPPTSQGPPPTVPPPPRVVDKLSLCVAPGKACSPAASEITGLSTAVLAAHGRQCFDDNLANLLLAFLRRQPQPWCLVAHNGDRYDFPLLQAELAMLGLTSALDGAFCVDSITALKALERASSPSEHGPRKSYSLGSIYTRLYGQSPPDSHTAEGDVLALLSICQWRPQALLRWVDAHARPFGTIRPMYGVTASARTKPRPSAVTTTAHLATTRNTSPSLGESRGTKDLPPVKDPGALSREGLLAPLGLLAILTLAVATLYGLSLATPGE
Assay summary: TREX1 Kinetics Assays (TR-FRET association and dissociation, global fit with Kintek Explorer)
Assay type: binding
Condition label: hTREX1, TR-FRET kinetics
Description: Compound binding kinetics were assessed using a pair of TR-FRET assays which measure the proportion of protein bound to a biotinylated TREX1 inhibitor (“probe”). […]
Listed here are molecules together with their documented residence time.

{"columns": ["Molecule", "Test system", "residence time [min]"],
 "data": [
  ["Cc1ncc(C(c2ccccc2Cl)C(C)c2nc(C(=O)Nc3cnoc3)c(O)c(=O)n2C)nc1C (single isomer, unassigned)", "full length human TREX1 (Homo sapiens, UniProt Q9NSU2)", 543],
  ["CC(c1nc(C(=O)Nc2cnoc2)c(O)c(=O)n1C)C(c1cnn(C(F)F)c1)c1ccccc1C#N (single isomer, unassigned)", "full length human TREX1 (Homo sapiens, UniProt Q9NSU2)", 290],
  ["CC(c1nc(C(=O)Nc2cnoc2)c(O)c(=O)n1C)C(c1cnn(C)c1)c1ccccc1C#N (single isomer, unassigned)", "full length human TREX1 (Homo sapiens, UniProt Q9NSU2)", 368],
  ["CC(c1nc(C(=O)Nc2cnoc2)c(O)c(=O)n1C)C(c1cnn(C)c1)c1cc(F)ccc1C#N (single isomer, unassigned)", "full length human TREX1 (Homo sapiens, UniProt Q9NSU2)", 310],
  ["CC(c1nc(C(=O)Nc2cnoc2)c(O)c(=O)n1C)C(c1ccccc1C#N)c1cn(C)nc1C#N (single isomer, unassigned)", "full length human TREX1 (Homo sapiens, UniProt Q9NSU2)", 613],
  ["Cc1ncc(C(c2ccccc2C#N)C(C)c2nc(C(=O)Nc3cnoc3)c(O)c(=O)n2C)cn1 (single isomer, unassigned)", "full length human TREX1 (Homo sapiens, UniProt Q9NSU2)", 408],
  ["Cc1cc(C(c2cc(F)ccc2C#N)C(C)c2nc(C(=O)Nc3cnoc3)c(O)c(=O)n2C)n(C)n1 (single isomer, unassigned)", "full length human TREX1 (Homo sapiens, UniProt Q9NSU2)", 461],
  ["CC(c1nc(C(=O)Nc2cnoc2)c(O)c(=O)n1C)C(c1cnn(CC(F)(F)F)c1)c1ccccc1C#N (single isomer, unassigned)", "full length human TREX1 (Homo sapiens, UniProt Q9NSU2)", 256]
]}

----------
Test system: full length human TREX1 (Homo sapiens)
Construct: N-terminally His-Tev tagged full length human TREX1; made in house; host or cells: E. coli
Assay summary: hTREX1 Biochemical Assay (fluorescence, dsDNA substrate degradation)
Condition label: biochemical, read-out: hTREX1 IC50
pIC50: −log10 of the molar value.
Listed here are compounds together with their documented pIC50.
Endpoint label: pIC50

{"columns": ["Compound", "Observed result"],
 "data": [
  ["CCn1ncc(C(c2ccccc2C#N)C(C)c2nc(C(=O)Nc3cnoc3)c(O)c(=O)n2C)c1C (single isomer, unassigned) [Example 68 D1E2]", "< 8.00"],
  ["Cc1ccn(C(c2ccccc2C#N)C(C)c2nc(C(=O)Nc3cnoc3)c(O)c(=O)n2C)n1 (single isomer, unassigned) [Example 132 D1E2]", "> 9.00"],
  ["CC(c1nc(C(=O)Nc2cnoc2)c(O)c(=O)n1C)C(c1cnn(CC(C)(C)O)c1)c1ccccc1C#N (single isomer, unassigned) [Example 36 D1E1]", "> 9.00"],
  ["CC(c1nc(C(=O)Nc2cnoc2)c(O)c(=O)n1C)C(c1ccccc1Cl)n1nccc1C#N (single isomer, unassigned) [Example 140 D1E1]", "> 9.00"],
  ["CC(c1nc(C(=O)Nc2cnoc2)c(O)c(=O)n1C)C(c1ncn(C)n1)c1ccccc1C#N (single isomer, unassigned) [Example 51 D1E1]", "< 8.00"],
  ["Cc1cn(C)nc1C(c1ccccc1C#N)C(C)c1nc(C(=O)Nc2cnoc2)c(O)c(=O)n1C (single isomer, unassigned) [Example 64 D1E2]", "< 8.00"],
  ["COCCn1nc(C)c(C(c2cc(F)ccc2C#N)C(C)c2nc(C(=O)Nc3cnoc3)c(O)c(=O)n2C)c1C (single isomer, unassigned) [Example 110 D1E2]", "< 8.00"],
  ["CC(c1nc(C(=O)Nc2cnoc2)c(O)c(=O)n1C)C(c1cnn(CC(F)F)c1)c1cc(F)ccc1C#N (single isomer, unassigned) [Example 102 D1E1]", "< 8.00"],
  ["Cc1nn(C)c(C)c1C(c1cc(F)ccc1Cl)C(C)c1nc(C(=O)Nc2cnoc2)c(O)c(=O)n1C (single isomer, unassigned) [Example 154 D1E2]", "< 8.00"],
  ["Cc1nc(C)c(C(c2ccccc2C#N)C(C)c2nc(C(=O)Nc3cnoc3)c(O)c(=O)n2C)nc1C (single isomer, unassigned) [Example 122 D1E2]", "< 8.00"],
  ["CC(c1nc(C(=O)Nc2cnoc2)c(O)c(=O)n1C)C(c1cnn(C)c1)c1ccncc1C#N (single isomer, unassigned) [Example 8 D2E1]", "< 8.00"],
  ["Cc1cnc(C(c2ccccc2C#N)C(C)c2nc(C(=O)Nc3cnoc3)c(O)c(=O)n2C)c(C)n1 (single isomer, unassigned) [Example 123 D1E2]", "< 8.00"]
]}
